Target: IV-cPLA(2) (Homo sapiens)
Sequence (P47712 whole entry): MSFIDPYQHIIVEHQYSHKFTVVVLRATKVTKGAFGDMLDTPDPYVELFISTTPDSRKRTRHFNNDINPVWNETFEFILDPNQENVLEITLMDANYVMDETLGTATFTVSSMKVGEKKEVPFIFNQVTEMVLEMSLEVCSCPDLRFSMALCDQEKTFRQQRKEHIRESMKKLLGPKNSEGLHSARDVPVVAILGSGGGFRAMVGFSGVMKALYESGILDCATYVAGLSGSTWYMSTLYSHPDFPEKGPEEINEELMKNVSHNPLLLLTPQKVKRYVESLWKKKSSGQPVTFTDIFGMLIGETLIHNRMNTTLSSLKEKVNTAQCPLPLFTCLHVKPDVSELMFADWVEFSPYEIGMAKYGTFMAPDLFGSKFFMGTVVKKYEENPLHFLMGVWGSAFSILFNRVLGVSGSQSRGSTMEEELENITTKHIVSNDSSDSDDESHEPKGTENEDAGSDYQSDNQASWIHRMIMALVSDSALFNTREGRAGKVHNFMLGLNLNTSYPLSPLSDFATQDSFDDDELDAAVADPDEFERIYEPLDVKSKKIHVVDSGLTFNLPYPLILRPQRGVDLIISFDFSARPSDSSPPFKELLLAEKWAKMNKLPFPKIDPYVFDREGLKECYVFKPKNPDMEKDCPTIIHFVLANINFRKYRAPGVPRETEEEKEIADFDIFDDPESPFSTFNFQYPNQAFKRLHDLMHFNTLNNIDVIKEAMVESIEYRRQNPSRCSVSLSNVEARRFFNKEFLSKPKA
Assay: PLA(2) activity, hydrolysis of bis-BODIPY FL C11-PC in activated U937 cells
Format: cell-based
Details: 1 μM
value type: Inhibition (%)

compound="CC1C(c2ccc(Cl)cc2)SC(=O)N1C(=S)NC1CCCCC1 (stereo not shown) [Compound 2-194]" subject_of_test="IV-cPLA(2) (Homo sapiens)" assay_result=78
compound="COC1CCCC(NC(=O)N2C(=O)OC(c3ccc4ccccc4c3)C2C)O1 (stereo not shown) [Compound 2-133]" subject_of_test="IV-cPLA(2) (Homo sapiens)" assay_result=75
compound="CC1C(c2ccc(Oc3ccccc3)cc2)OC(=O)N1C(=O)NC1CCCO1 (stereo not shown) [Compound 2-128]" subject_of_test="IV-cPLA(2) (Homo sapiens)" assay_result=81
compound="CC1C(c2ccc(Cl)cc2)SC(=O)N1C(=O)NC(=O)c1ccccc1 (stereo not shown) [Compound 2-38]" subject_of_test="IV-cPLA(2) (Homo sapiens)" assay_result=87
compound="CC1C(c2cccc3ccccc23)OC(=O)N1C(=O)NC1CCCCO1 (stereo not shown) [Compound 2-113]" subject_of_test="IV-cPLA(2) (Homo sapiens)" assay_result=72
compound="CC1C(c2ccc(Cl)cc2)SC(=O)N1C(=O)Nc1ccncc1 (stereo not shown) [Compound 2-21]" subject_of_test="IV-cPLA(2) (Homo sapiens)" assay_result=100
compound="CC1C(c2ccc(Cl)cc2)SC(=O)N1C(=O)NC1CCCCO1 (stereo not shown) [Compound 2-201]" subject_of_test="IV-cPLA(2) (Homo sapiens)" assay_result=94
compound="Cc1ccc(C2OC(=O)N(C(=O)NN3CCN(C)CC3)C2C)cc1 (stereo not shown) [Compound 2-161]" subject_of_test="IV-cPLA(2) (Homo sapiens)" assay_result=65
compound="CCNC(=O)N1C(=NNc2ccccc2)SC(c2ccc(Cl)cc2)C1C (stereo not shown) [Compound 1-77]" subject_of_test="IV-cPLA(2) (Homo sapiens)" assay_result=100
compound="Cc1ccc(C2SC(=NC(=S)NC3CCCCC3)NC2C)cc1 (stereo not shown) [Compound 1-112]" subject_of_test="IV-cPLA(2) (Homo sapiens)" assay_result=72

###

Target: UniProt P47712
Experiment: PLA(2) activity, hydrolysis of bis-BODIPY FL C11-PC in activated U937 cells
Format: cell-based
Details: 0.1 μM
value type: Inhibition (%)

compound="CC1NC(=N[N+](=O)[O-])SC1c1ccc(Cl)cc1 (stereo not drawn)" value_type="Inhibition (%)" assay_result=88
compound="Cc1ccc(C2OC(=O)N(C(=S)NC3CCCCC3)C2C)cc1C (stereo not drawn)" value_type="Inhibition (%)" assay_result=91
compound="Cc1ccc(C2OC(=O)N(C(=O)NC3CCCCO3)C2C)cc1C (stereo not drawn)" value_type="Inhibition (%)" assay_result=88

###

Target: IV-cPLA(2) (Homo sapiens)
Test: PLA(2) activity, hydrolysis of bis-BODIPY FL C11-PC in activated U937 cells
Type: cell-based
Settings: 0.1 μM
value type: Inhibition (%)

compound="Cc1ccc(C2OC(=O)N(C(=O)NC3CCSCC3)C2C)cc1 (stereo not drawn) [Compound 2-157]" value_type="Inhibition (%)" unit_tag=% assay_result=96
compound="CC1C(c2ccccn2)OC(=O)N1C(=O)Nc1ccc(Cl)cc1 (stereo not drawn) [Compound 2-146]" value_type="Inhibition (%)" unit_tag=% assay_result=85
compound="C=CC(=O)N=C1SC(c2ccc(C)cc2)C(C)N1C(=O)NC1CCCCC1 (stereo not drawn) [Compound 1-49]" value_type="Inhibition (%)" unit_tag=% assay_result=91
